Data provenance: patent US20090069441A1

# Tested on: CHO-MG cells
# method: Cytotoxicity in PAT-deficient CHO-MG cells
# Format: cell-based, Chinese hamster
# cond: absence of AG; 48 h; read-out: CHO-MG IC50 w/o AG
assayMetric: IC50 (µM)
Answer with a number only, understood to be in µM.

*Q* Fill in IC50 for record `CNCCCCNCCCCNCc1c2ccccc2cc2ccccc12`
*A* 56.2

* * *

The following compounds are shown together with reported IC50 values.
# Tested on: CHO-MG cells
# method: Cytotoxicity in PAT-deficient CHO-MG cells
# Format: cell-based, Chinese hamster
# cond: Cricetulus griseus, CHO-MG; absence of AG; 48 h; read-out: CHO-MG IC50 w/o AG
Answer with a number only, understood to be in µM.

> print(dat)
                                   compound  readoutvalue
1  CCNCCCCNCCCCNCc1c2ccccc2cc2ccccc12 [Compound 27]          51.2

Then this compound:
*Q* Report IC50 on CHO-MG cells for this entry: NCCCCNCCCCNCc1c2ccccc2cc2ccccc12 [Compound 6b]
*A* 7.05
